Test system: U2OS
ASSAY_NAME: cell viability relative to DMSO; higher = less toxic
ASSAY_CONTEXT: 72 h; 10000 nM
OBSERVABLE: cell viability (%)
Give your result in % as a bare value.

Req: So what does the record say about cell viability for `CN(C)CCc1c[nH]c2ccc(CS(=O)(=O)N3CCCC3)cc12` ?
Resp: 100

Req: So what does the record say about cell viability for `CCOC(=O)[C@H]1O[C@@H]1C(=O)N[C@@H](CC(C)C)C(=O)NCCC(C)C` ?
Resp: 97.6

Req: So what does the record say about cell viability for `COc1ccc(C(=O)Nc2c(Cl)cncc2Cl)cc1OC1CCCC1` ?
Resp: 94.8

Req: So what does the record say about cell viability for `CCc1cccc(CC)c1NC1=NCCN1` ?
Resp: 99

Req: So what does the record say about cell viability for Cc1ccc2c(c1)=C(c1ccccc1)C(C1=NN(C(=O)CCC(=O)O)C(c3ccc(Br)cc3)C1)C(=O)N=2 (centres undefined) ?
Resp: 94.9

Req: So what does the record say about cell viability for `Cc1ccc(-c2ccc(C)cn2)nc1` ?
Resp: 99

Req: So what does the record say about cell viability for `O=C(N/N=C/c1ccccc1O)c1ccccc1O` ?
Resp: 46.3

Req: So what does the record say about cell viability for O=C(/C=C/c1cccc(F)c1)NC1CC1 [cinflumide] ?
Resp: 99.8

Req: So what does the record say about cell viability for `COc1ccc(CCO[C@@H]2CCCC[C@H]2N2CC[C@@H](O)C2)cc1OC` ?
Resp: 101

Req: So what does the record say about cell viability for `COc1ccc(/C=C\c2cc(OC)c(OC)c(OC)c2)cc1OP(=O)(O)O` ?
Resp: 19.5

Req: So what does the record say about cell viability for `CC(C)Oc1ccc(-c2cnc3c(-c4ccnc5ccccc45)cnn3c2)cc1` ?
Resp: 89.8

Req: So what does the record say about cell viability for `Cc1nc2ccc(-n3ncc(C(=O)c4cc5ccccc5[nH]4)c3N)cc2[nH]1` ?
Resp: 84.3

Req: So what does the record say about cell viability for `CS(=O)(=O)c1ccc([C@@H](CC2CCCC2)C(=O)Nc2nccs2)cc1` ?
Resp: 98.9

Req: So what does the record say about cell viability for `c1ccc(CNc2ncnc3[nH]cnc23)cc1` ?
Resp: 100

====

Test system: HepG2
ASSAY_NAME: cell viability relative to DMSO; higher = less toxic
ASSAY_CONTEXT: 72 h; 1000 nM
Assign cell viability to each entry below.
Give your result in % as a bare value.

Req: # returns recorded cell viability (system: HepG2) for `CCCN1CCO[C@@H]2c3cc(O)ccc3OC[C@H]21`
Resp: 92

Req: # returns recorded cell viability (system: HepG2) for COc1ccc(Cl)cc1C(=O)NCCc1ccc(C(=O)O)cc1 [meglitinide]
Resp: 88.7

Req: # returns recorded cell viability (system: HepG2) for `O=c1oc(-c2ccc(C(F)(F)F)cc2)nn1Cc1cc(Cl)ccc1O`
Resp: 99.2

Req: # returns recorded cell viability (system: HepG2) for COCCOc1cnc2ccn([C@H](C)c3nnc4c(F)cc(-c5cnn(C)c5)cn34)c(=O)c2c1 [AMG-337]
Resp: 91.5

====

Tested on: U2OS
ASSAY_NAME: cell viability relative to DMSO; higher = less toxic
ASSAY_CONTEXT: 72 h; 1 nM
OBSERVABLE: cell viability (%)
Give your result in % as a bare value.

Req: So what does the record say about cell viability for COC(=O)C1=C(C)NC(C)=C(C(=O)OCCSc2ccccc2)[C@@H]1C [PCA-4248] ?
Resp: 98

Req: So what does the record say about cell viability for COC(=O)C1=C(C)NC(C)=C(C(=O)OC2CCCN(Cc3ccccc3)C2)C1c1cccc([N+](=O)[O-])c1 (configuration not stated) [benidipine] ?
Resp: 100

Req: So what does the record say about cell viability for C[C@]12C=CC(=O)C=C1CC[C@@H]1[C@@H]2[C@@H](O)C[C@@]2(C)[C@H]1CC[C@]2(O)C(=O)COC(=O)CCC(=O)O [prednisolone-hemisuccinate] ?
Resp: 97.5

Req: So what does the record say about cell viability for `CC[C@H](C)n1cc(C)c2c(C(=O)NCc3c(C)cc(C)[nH]c3=O)cc(-c3ccc(N4CCNCC4)nc3)cc21` ?
Resp: 97.4

Req: So what does the record say about cell viability for N[C@@H](CSCCCO)C(=O)O [fudosteine] ?
Resp: 96.4

Req: So what does the record say about cell viability for FC(F)(F)Oc1ccc2nc(-c3ccc(OCCOCCOc4ccc(-c5nc6ccc(OC(F)(F)F)cc6[nH]5)nc4)cn3)[nH]c2c1 [AI-10-49] ?
Resp: 98.5

Req: So what does the record say about cell viability for O=C(/C=C/c1cccc(F)c1)NC1CC1 [cinflumide] ?
Resp: 98.9

Req: So what does the record say about cell viability for C[C@H](CSC(=O)c1ccccc1)C(=O)N1C[C@@H](Sc2ccccc2)C[C@H]1C(=O)O [zofenopril-calcium] ?
Resp: 98.4

Req: So what does the record say about cell viability for COc1cc(C(=O)N(CC[C@H]2CCCN2C)C/C(C)=C/c2ccccc2F)cc(OC)c1OC (racemic) ?
Resp: 98.6

Req: So what does the record say about cell viability for `COC(=O)[C@H](Cc1ccc([N+](=O)[O-])cc1)NC(=O)c1cccc2ccccc12` ?
Resp: 94.2

Req: So what does the record say about cell viability for Cc1ccc(-c2ccc(C)cn2)nc1 [abametapir] ?
Resp: 98.8

Req: So what does the record say about cell viability for `Nc1nc(NCCc2ccc(O)cc2)nc2nc(-c3ccco3)nn12` ?
Resp: 99.5

Req: So what does the record say about cell viability for CC(=O)NC1CCSC1=O (configuration not stated) [citiolone] ?
Resp: 95.4

Req: So what does the record say about cell viability for Cc1cc(Nc2ncc(Cl)c(Nc3ccccc3S(=O)(=O)C(C)C)n2)c(OC(C)C)cc1C1CCNCC1 [ceritinib] ?
Resp: 97.7

Req: So what does the record say about cell viability for CN1CCN(C(=O)CN[C@@H]2C[C@H]2c2ccc(OCc3ccccc3)cc2)CC1 [RN-1] ?
Resp: 103

Req: So what does the record say about cell viability for [Cl][Ru-]([Cl])([Cl])[Cl].[Na+].c1ccc2[nH]ncc2c1.c1ccc2[nH]ncc2c1 [NKP-1339] ?
Resp: 94.2

Req: So what does the record say about cell viability for Cc1cc(C)c(CNC(=O)c2cc(-c3ccc(N4CCN(C)CC4)nc3)cc3c2c(C)cn3C(C)C)c(=O)[nH]1 [GSK503] ?
Resp: 104
